- Tested on: UACC-62 melanoma
- protocol.notes: NCI-60 one-dose screen, 48 h (100 = growth as untreated, 0 = no growth, -100 = all killed)
- condition.label: 10 µM unless noted
The panel holds about 83,000 compounds, 20% with a hit somewhere; the sample as a whole holds those more often.
Consider the reported growth of an entry and match it to a band in low bracket = under 40%, middle bracket = from 40% up to 80%, high bracket = 80% and over

N=S(=O)(NC(=O)c1ccc(Cl)cc1Cl)c1ccc(Br)s1 (centres undefined): high bracket
COc1cc(OC)c(/C=C/S(=O)(=O)Cc2ccc(OC)c(N)n2)c(OC)c1: middle bracket
COCCOC(=O)C1=C(C)NC(=S)NC1c1ccc2c(c1)OCO2 (centres undefined): high bracket
Cc1ccc2c(NCCCN(C)C)c3c(C)nn(C)c3nc2c1: middle bracket
CCCCCCCCSC1=CC(=O)C(OC)=C(OC)C1=O: middle bracket
COc1ccc(CN(c2ccc(C)cc2)C2OC(=O)c3ccccc32)cc1OC (centres undefined): high bracket

Prompt: Any idea which band CCN(CC)CCC(=O)Nc1ccc(Cn2nnc3c2C(=O)c2nnn(Cc4ccc(NC(=O)CCN(CC)CC)cc4)c2C3=O)cc1 is in?
Completion: low bracket

Prompt: Any idea which band CCCCCCCCCCCCCCCCCCSC1=CC(=O)C(OC)=C(OC)C1=O is in?
Completion: middle bracket

Prompt: Any idea which band Nc1cc(-c2nc3sccn3c2-c2ccnc(NCCCNS(=O)(=O)c3ccc(F)cc3)n2)ccc1F is in?
Completion: low bracket

Prompt: Any idea which band CCOC(=O)/C=C/c1ccc(C(=O)OCC)[nH]1 is in?
Completion: middle bracket

Prompt: Any idea which band CC/C=C\C[C@H](F)C/C=C1/C(=O)C=C[C@@H]1C/C=C\CCCC(=O)O is in?
Completion: low bracket

Prompt: Any idea which band COc1cnc2c(c1)C(=O)c1c-2n(CCCN2CCCC2)c(=O)c2cc([N+](=O)[O-])ccc12 is in?
Completion: low bracket

Prompt: Any idea which band CC1=NNC(=O)C1C (centres undefined) is in?
Completion: high bracket

* * *

Listed here: items and their measured growth.
- Test system: CAKI-1 renal
- protocol.notes: NCI-60 one-dose screen, 48 h (100 = growth as untreated, 0 = no growth, -100 = all killed)
- condition.label: 10 µM unless noted
The panel holds about 83,000 compounds, 20% with a hit somewhere; the sample as a whole holds those more often.
The figure you give is taken to be in %; do not add the unit.

Prompt: Could you tell me which growth is on file for Nc1cc2ccncc2c2ccccc12 ?
Completion: 58.2

Prompt: Could you tell me which growth is on file for CN(C)c1ccc(C2Nc3ccccc3-n3cccc32)cc1 (stereo not given) ?
Completion: 83.3

Prompt: Could you tell me which growth is on file for Cc1[nH]n(-c2ccccc2)c2nc3nncc3c(-c3ccc(Cl)cc3)c12 ?
Completion: 90.3

Prompt: Could you tell me which growth is on file for O=C(/C=C/c1cccc(Br)c1)c1ccccc1 ?
Completion: 90.6

Prompt: Could you tell me which growth is on file for CCCCN(CCCC)CCC(C)(O)c1cc2ccccc2c2ccccc12 (stereo not given) ?
Completion: 87.9

* * *

- System: KM12 colon
- protocol.notes: NCI-60 one-dose screen, 48 h (100 = growth as untreated, 0 = no growth, -100 = all killed)
- condition.label: 10 µM unless noted
Compounds without any hit were thinned out: in the full panel of roughly 83,000, 20% have a hit.
// NB: equality with 60% counts as no (0); only growth strictly below is yes (1)

O=C1c2cc3c(cc2-c2c1c1cc(Cl)c(Cl)cc1c(=O)n2CCCn1ccnc1)OCO3: yes (1)
COc1cccc(-c2cn3c(ccc4ccccc43)n2)c1: yes (1)
CCCC(=O)Oc1ccc(/C(=C(/CC)Cc2ccccc2)c2ccc(OCCN3CCCC3)cc2)cc1: no (0)
C/C(=C(/c1ccc(O)cc1)c1ccc(OCCN(C)C)cc1)c1ccccc1: no (0)
CCCCCCCCCCCCCC1=NCCN1CCO: yes (1)

Then there is this molecule:
Prompt: For this molecule, is growth lower than 60%? CC(=O)Oc1cc2cnc3c4cc(OC(C)=O)c(OC(C)=O)cc4ccc3c2cc1OC(C)=O
Completion: yes (1)

* * *

- Test system: NCI/ADR-RES ovarian
- protocol.notes: NCI-60 one-dose screen, 48 h (100 = growth as untreated, 0 = no growth, -100 = all killed)
- condition.label: 10 µM unless noted
This is part of a sample that, as a whole, favours compounds with a hit. Of some 83,000 tested, about 20% had one in any assay.
// NB: equality with 70% counts as Not fulfilled; only growth strictly below is Fulfilled

O=c1c2cccc3c(Nc4ccccn4)ccc(c32)c2nc3ccccc3n12: Not fulfilled

Prompt: For this molecule, is growth lower than 70%? CCOC(=O)c1cnc2ccc(OC)cc2c1Nc1cccc(S(=O)(=O)NC)c1
Completion: Not fulfilled

Prompt: For this molecule, is growth lower than 70%? CS(=O)(CCCCN=C=S)=NC(=O)c1c(F)c(F)c(F)c(F)c1F (centres undefined)
Completion: Not fulfilled

Prompt: For this molecule, is growth lower than 70%? C[C@@H]1CC[C@@H]2[C@@H]1[C@H](OC(=O)/C=C/c1ccccc1)[C@]1(c3ccccc3)C[C@@H](OC(=O)CO)[C@@]2(C)O1
Completion: Fulfilled

Prompt: For this molecule, is growth lower than 70%? Cc1noc(C)c1-c1cc(O)cc(C(O)c2ccccc2)c1 (centres undefined)
Completion: Fulfilled

* * *

- Test system: HS 578T breast
- protocol.notes: NCI-60 one-dose screen, 48 h
- condition.label: 10 µM unless noted
The panel holds about 83,000 compounds, 20% with a hit somewhere; the sample as a whole holds those more often. The source made the active and inactive calls. The calls were made as follows: active = growth percent below 10; inactive = the rest.
In this exercise, the only acceptable responses are active, inactive

Past entries and their recorded results:
CS(=O)(=O)c1c(Nc2ccccc2)n[nH]c1N: inactive
COC(=O)[C@@H]1CC[C@]2(C)[C@H](CC[C@@H]3O[C@@]32C)[C@@]1(C)CC(=O)c1ccoc1: inactive
CC1=C(NCCN2CCCC2)C(=O)c2c(OCc3ccc(C(F)(F)F)cc3)cccc2C1=O: inactive
COc1cc2cc(COc3nccc(-c4ccc(Cl)cc4)n3)c(=O)[nH]c2cc1OC: inactive
CCCCNP1(NCCCC)=NP(NCCCC)(NCCCC)=NP(NCCCC)(NCCCC)=NP(NCCCC)(NCCCC)=N1: active
O=S(=O)(NCCCNc1cc(-c2cn(-c3ccccc3)nc2-c2cccc(O)c2)ccn1)c1ccccc1: inactive

Prompt: Could you kindly confirm the outcome this assay logged for CSc1ccc(N=C=C(c2ccccc2)c2ccccc2)cc1 ?
Completion: inactive

Prompt: Could you kindly confirm the outcome this assay logged for CCOC(=O)c1nc(Nc2cc(C)[nH]n2)c2ccccc2n1 ?
Completion: inactive

Prompt: Could you kindly confirm the outcome this assay logged for COc1cc(NCCCCN=C(N)NC(N)=NC(C)C)c2ncccc2c1 ?
Completion: inactive

Prompt: Could you kindly confirm the outcome this assay logged for O=C(/C=C\c1cccc([N+](=O)[O-])c1)c1ccccc1 ?
Completion: inactive

Prompt: Could you kindly confirm the outcome this assay logged for CCN(CC)CCCC(C)Nc1ccnc2c(OC)cccc12 (stereo not drawn) ?
Completion: inactive

Prompt: Could you kindly confirm the outcome this assay logged for CC/C(Cc1ccccc1)=C(\c1ccc(OCCN2CCCC2)cc1)c1ccc(OC(C)=O)cc1 ?
Completion: inactive

Prompt: Could you kindly confirm the outcome this assay logged for Cn1c2ccccc2c2c3[nH]c(=O)[nH]c(=O)c3c3c4ccccc4n(C)c3c21 ?
Completion: active

* * *

- Tested on: A498 renal
- protocol.notes: NCI-60 one-dose screen, 48 h
- condition.label: 10 µM unless noted
- Experimental: Growth inhibition of the A498 human tumor cell line is measured as a screen for anti-cancer activity. Cells are grown in 96 well plates and exposed to the test compound for 48 hours. Compounds are tested at a single concentration, which is 10^-5 M for most compounds. The reported endpoint is percent growth (GI% or GIPRCNT), where numbers from 0 - 100% represent growth inhibition, and numbers from -100% - 0 represent cell death. For example, a value of 40 represents 60% growth inhibition. […]
About 83,000 compounds went through this panel and 20% of them were active in at least one assay; those are over-represented in the sample as a whole. Calls of active or inactive are those of the source. Rule for the calls: active = growth percent below 10; inactive = the rest.
In this exercise, the only acceptable responses are y = active, n = inactive

Past entries and their recorded results:
CNC(=O)c1cc(Oc2ccc3nc(NC(=O)Nc4ccc(CN5CCOCC5)c(C(F)(F)F)c4)sc3c2)ccn1: y
Cc1cccc(NC(=O)c2sc3nc4c(cc3c2N)C(=O)CCC4)c1: y

Prompt: Could you kindly confirm the outcome this assay logged for CCCCCCCCCCCCCC1=NCCN1CCO ?
Completion: n

Prompt: Could you kindly confirm the outcome this assay logged for Cc1ccc2c(c1)O/C(=C\c1cccc(OCC(=O)c3ccccc3)c1)C2=O ?
Completion: n

Prompt: Could you kindly confirm the outcome this assay logged for Cc1ccc2c(c1)C(=O)/C(=C/c1ccc(OCC(=O)c3ccccc3)cc1)O2 ?
Completion: n

Prompt: Could you kindly confirm the outcome this assay logged for CC(C)c1c(C(=O)Nc2ccccc2)c(-c2ccccc2)c(-c2ccc(F)cc2)n1CC[C@@H]1CC=CC(=O)O1 ?
Completion: n

Prompt: Could you kindly confirm the outcome this assay logged for O=C(O)c1c([N+](=O)[O-])cnc2ccccc12 ?
Completion: n
